Values from ChEMBL document CHEMBL3433997

Exercise: for every item that follows, state its recorded inhibition.
Biological target: Glucose transporter (Leishmania mexicana)
Experiment: ST_JUDE_LEISH: Cytotoxicity at 2uM final concentration against transgenic Leishmania Mexicana promastigotes LmGT2 that are glucose transport deficient and complemented with the L. Mexicana glucose transporter 2. Activity is measured by DNA content using SYBR green in vitro
Type: functional
State the answer as a number, implicitly in %.

Tested on Glucose transporter (Leishmania mexicana), the item O=C(NCC1CCC(C(=O)NCCN2CCCCC2)CC1)c1ccc(O)c(-c2ccc(Cl)c(Cl)c2)c1 (stereo not given) showed inhibition equal to 0.18

Item: Cc1cc(Nc2c(C(N)=O)cnc3cc(-c4ccoc4)ccc23)ccc1N1CCN(C)CC1 | System: Glucose transporter (Leishmania mexicana) | inhibition: -0.69

Measured inhibition (Glucose transporter (Leishmania mexicana)), entry CC1CN(Cc2cccc(F)c2)CCN1c1ccc(NC(=O)c2ccc(F)cc2)cc1 (stereo not given) : 8.54

Reported Glucose transporter (Leishmania mexicana) inhibition for item COc1cc(-c2nc3c4ccccc4c4ccccc4c3[nH]2)cc(OC)c1OC was 1.58

Considering COc1ccccc1N1CCN(C(C(=O)NCc2cccc(F)c2)c2ccc(C)cc2)CC1 (stereo not given) , its inhibition with Glucose transporter (Leishmania mexicana) was recorded as -1.92

Item: CCCCc1ccc(CCNCCCCCCNCCc2ccc(O)c(O)c2)cc1 | System: Glucose transporter (Leishmania mexicana) | inhibition: -1.2

Assay Glucose transporter (Leishmania mexicana), sample CCOc1cc(/C=N/Nc2nc3ccccc3[nH]2)ccc1OCc1ccc([N+](=O)[O-])cc1 , inhibition read: 4.41

For the compound Oc1ccccc1CNCC12CC3CC(CC(C3)C1)C2 , the measured inhibition on Glucose transporter (Leishmania mexicana) was 2.13

Query CC1CN(c2cnn(Cc3ccc(NC(=O)Nc4cccc(C(F)(F)F)c4)cc3)c(=O)c2Cl)CC(C)N1 (stereo not given) on Glucose transporter (Leishmania mexicana); inhibition returned: -1.12

Glucose transporter (Leishmania mexicana) data for CN1CCN(CCCCCNc2c3ccccc3nc3ccccc23)CC1 ; its inhibition: 17.9

====

Biological target: Glucose transporter (Leishmania mexicana) (UniProt O61059)
Test: ST_JUDE_LEISH: Cytotoxicity at 2uM final concentration against transgenic Leishmania Mexicana promastigotes LmGT2 that are glucose transport deficient and complemented with the L. Mexicana glucose transporter 2. Activity is measured by DNA content using SYBR green in vitro
Format: functional
Reported Metric: inhibition (%)
Give the value in % but do not write % after it.

molecule CC(c1cccc(S(=O)(=O)NCc2ccc(Cl)cc2Cl)c1)N1CCC(N2CCCCC2)CC1 (stereo not given) , inhibition observed: 3.71

Item: COC(=O)CCCCOc1c(OC)cc(Cc2cnc(N)nc2N)cc1OC | inhibition: 7.7

The reported value for CCOC(=O)CNC(=O)N1CCN(C(=O)NCC(=O)OCC)CC1 in terms of inhibition is 1.45

For Cc1nc(C)c(-c2ccc(S(=O)(=O)c3ccc(Cl)cc3)cc2)c(O)c1Br the molecule record lists inhibition as 4.12

// CC1CCN(Cc2ccc(NC(=O)c3cc4ccc5cccnc5c4[nH]3)cc2)CC1 : inhibition value = 7.77

// inhibition lookup, molecule = CC(C)CNCc1cccc(-c2ccccc2CN(C(=O)NCCc2ccccc2)C2CCN(Cc3ccccc3)CC2)c1 , result: 8.25

inhibition recorded for this molecule, Cc1cc(N2CCCC2)nc(Nc2ccc(NC(=O)c3ccccc3C)cc2)n1 , is 0.46

The recorded inhibition for entry CN1CCCc2ccc(NC(=O)Nc3ccc(Cl)c(Cl)c3)cc2C1 equals -1.33

Lab book: inhibition of CCCCCN1CCC(NC(=O)c2ccc(C(=O)Nc3ccc(C(C)C)cc3)cc2)C1 (stereo not given) noted as 1.46

# inhibition of COc1ccc(NC(=O)[C@H](C)Nc2cc(C)nc(NCC3CCCCC3)n2)cc1 = 3

====

Exercise: state measured inhibition for each of the compounds provided.
Molecular target: Hexose transporter 1 (Plasmodium falciparum) (UniProt O97467)
Assay: ST_JUDE_LEISH: Cytotoxicity at 2uM final concentration against transgenic Leishmania Mexicana promastigotes LmPfHT that are glucose transport deficient and complemented with the Plasmodium falciparum hexose transporter. Activity is measured by DNA content using SYBR green in vitro
Type: functional
State the result as a value with its unit after it.

Reported inhibition for CCCC(C(=O)OCCN(CC)CC)(c1ccc(Cl)cc1)c1ccc(Cl)cc1 was 5.49%

The recorded inhibition for entry COc1cc(OC)cc(C(=O)Nc2cccc(-c3cn4ccc(C)cc4n3)c2)c1 equals 2.27%

# inhibition (compound: CC1(C)NC(N)=NC(=N)N1OCCCOc1cccc2ccccc12 ) is 61.1%

Briefly, inhibition measured for CC(Cc1ccc(Cl)cc1)Nc1nc(NC2CCCC2)nc(N2CCC(C#N)(c3ccccc3)CC2)n1 (stereo not given) : 5.49%

The reported value for CCc1cn2c3c(cc(C(=O)N[C@@H](Cc4ccccc4)[C@H](O)CNC4CCC4)cc13)N(C)S(=O)(=O)CC2 in terms of inhibition is 5.19%

====

I'd appreciate it if you could supply inhibition values for the items below.
Target: Glucose transporter (Leishmania mexicana) (UniProt O61059)
Test: ST_JUDE_LEISH: Cytotoxicity at 2uM final concentration against transgenic Leishmania Mexicana promastigotes LmGT2 that are glucose transport deficient and complemented with the L. Mexicana glucose transporter 2. Activity is measured by DNA content using SYBR green in vitro
Format: functional
Numeric answer only, unit % assumed.

Observed inhibition on Glucose transporter (Leishmania mexicana) (UniProt O61059), entry CCCN(CC1CC1)c1nc(C)nc2c(-c3ccccc3)cc(C)cc12 , equals 10.1

The molecule Clc1ccc(Nc2nc(Nc3ccc(Cl)c(Cl)c3)nc(Sc3nc4ccccc4[nH]3)n2)cc1Cl , when measured on Glucose transporter (Leishmania mexicana) (UniProt O61059), yielded inhibition of 7.05

Given the molecule CN1CCN(c2ccnc3ccc(NC(=O)Nc4ccc5c(c4)CCC5=O)cc23)CC1 and test system Glucose transporter (Leishmania mexicana) (UniProt O61059), the measured inhibition is 5.45

// assay Glucose transporter (Leishmania mexicana) (UniProt O61059), entry COc1ccc(-c2nc(-c3ccc([N+](=O)[O-])cc3)no2)cc1OC , inhibition value = 1.76

Recorded inhibition for CN1CCC(NCc2ccc(S(=O)(=O)Nc3ccc(Oc4cccc(Cl)c4)cc3)cc2)CC1 on Glucose transporter (Leishmania mexicana) (UniProt O61059) was 0.97

Field inhibition (system: Glucose transporter (Leishmania mexicana) (UniProt O61059)) for entry Cc1noc(C)c1-c1cccc(CNCc2ccc(-c3ccc(-c4nc5cc(F)ccc5[nH]4)cc3)cc2)c1 = 3.46

Considering CC(C)C[C@H](NC(=O)[C@H](Cc1ccccc1)NC(=O)CCN1C(=O)COc2ccc(C(=O)O)cc21)C(=O)NC(CC1CCCCC1)C(O)CC(=O)NCCCn1ccnc1 (some centres undefined) , its inhibition with Glucose transporter (Leishmania mexicana) (UniProt O61059) was recorded as 9.78

// molecule NCc1ccc(CNCc2cccc(-c3ccc(-c4nc5cc(C(F)(F)F)ccc5[nH]4)cc3)c2)cc1 , assay Glucose transporter (Leishmania mexicana) (UniProt O61059), inhibition value: 0.8

Entry O=C(NCCCCN1CCC(c2cccc3ccccc23)CC1)c1ccc(-c2ccc(C(F)(F)F)cn2)cc1 under Glucose transporter (Leishmania mexicana) (UniProt O61059) had inhibition of 1.69

====

Target: Glucose transporter (Leishmania mexicana)
Experiment: ST_JUDE_LEISH: Cytotoxicity at 2uM final concentration against transgenic Leishmania Mexicana promastigotes LmGT2 that are glucose transport deficient and complemented with the L. Mexicana glucose transporter 2. Activity is measured by DNA content using SYBR green in vitro
Format: functional
Reported Metric: inhibition (%)
Enter your answer as a number in %; do not include the unit.

compound CCCCCCCN(Cc1ccc(OC(C)(C)C(=O)OCC)cc1)C(=O)Nc1ccc(Cl)cc1OCC , inhibition observed: 3.11

Form: compound = COC(=O)c1cccc(NC(=O)NCCNc2ccnc(Nc3ccc(F)cc3)n2)c1 ; inhibition = 2.45

Query CN1CCC(NCc2ccc(-c3cccc(S(=O)(=O)NCCc4ccccn4)c3)cc2)CC1 yields inhibition of 1.83

For reference, reported inhibition for CCCCn1c(Sc2ccc(C#N)c([N+](=O)[O-])c2)nnc1-c1ccc(OC)cc1 stands at 0.78

The compound listed as CC1CCCCC1N(C)C1CCN(CCCNC(=O)C=Cc2cccc(C(F)(F)F)c2)CC1 (stereo not given) shows inhibition equal to 1.79

====

Target: Solute carrier family 2, facilitated glucose transporter member 1 (Homo sapiens)
Assay: ST_JUDE_LEISH: Cytotoxicity at 2uM final concentration against transgenic Leishmania Mexicana promastigotes LmGLUT1 that are glucose transport deficient and complemented with the human glucose transporter GLUT1. Activity is measured by DNA content using SYBR green in vitro
Format: functional
Reported Metric: inhibition (%)
Respond with the bare value in %.

Note to self: inhibition recorded for Cc1[nH]c(C)c(-c2ccc(OCc3cc(C(F)(F)F)cc(C(F)(F)F)c3)nc2)c(=O)c1Cl was 6.26

For Cc1cc(-c2cc(Cl)ccc2Cl)no1 the compound record lists inhibition as -2.71

The measured inhibition associated with Cc1ccc(CN2CCCN(Cc3cccc(NC(=O)c4cc5ccccc5s4)c3)CC2)cc1 reads -0.92

Entry Cc1nc(N2CCC(C)CC2)c2c3c(sc2n1)CCCC3 , inhibition reported as 2.21

Recorded inhibition (compound CCC(C)CN1CCCN(c2ccc(NC(=O)c3cccs3)cc2)CC1 (stereo unspecified) ): 1.62

response.value for O=C(/C=C/c1ccc(Cl)c(Cl)c1)NCCCCCN1CCCC(C(=O)Nc2cccc(Cl)c2)C1 (stereo unspecified) (field: inhibition) = 3.89
